assayed system: T1, wtEGFR: full-length human EGFR with FLAG tag after the leader, on BaF/3 cells (human, UniProt P00533 25-1210)
T1 construct: whole, on cells; BaF/3 cells have no endogenous EGF receptors; also called wtEGFR-BaF/3
test protocol: Scatchard, 125I-EGF on BaF/3 cells, Kd2 (low-affinity site)
Procedure: Ligand binding to cells expressing the wt or mutant EGFR was determined at room temperature in the presence of the internalization inhibitor phenylarsine oxide (PAO) (29) by cold saturation experiments. […] All experimental points were prepared in triplicate. […] Data were analyzed using the “Kell for Windows” RadLig program. ^{(a)}Number of receptors per cell were calculated from the Bₘₐₓ and the number of cells/tube in each ligand binding experiment.
readout kind: pKd
Note: pKd values are expressed as the negative base-10 logarithm of concentration in M.

For Murine EGF, purified from mouse submaxillary glands (ligand, UniProt P01132 977-1029, looked up, iodinated with 125I (Iodogen) as tracer in the Scatchard assays, mature; also called ^125I-EGF) NSYPGCPSSYDGYCLNGGVCMHIESLDSYTCNCVIGYSGDRCQTRDLRWWELR , what is its reported pKd?
8.80

Data provenance is patent US20100322937A1.
